- Test system: WHIM30 (cells of a triple-negative basal-like breast cancer xenograft);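 note: PDX cells carrying CMV promoter-driven luciferase, viability read as total photon flux per second by IVIS imaging following D-luciferin, vehicle control 0.1% DMSO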
- ASSAY_EXPLANATION: cell viability (% of vehicle); higher = less cytotoxic
- EXPERIMENTAL_CONTEXT: 10 µM; 72 h
Could you please mark y for values of cell viability below 100 and n for values at or above it?

The examples below pair each entry with its known result.
CCOc1cc(C(CS(C)(=O)=O)N2C(=O)c3cccc(NC(C)=O)c3C2=O)ccc1OC (stereo not drawn)    n
CC[C@@H]1/C=C(\C)C[C@H](C)C[C@H](OC)[C@H]2O[C@@](O)(C(=O)C(=O)N3CCCC[C@H]3C(=O)O[C@H](/C(C)=C/[C@@H]3CC[C@H](Cl)[C@H](OC)C3)[C@H](C)[C@@H](O)CC1=O)[C@H](C)C[C@@H]2OC    y
COc1cc(Nc2ncc3c(n2)-c2ccc(Cl)cc2C(c2c(F)cccc2OC)=NC3)ccc1C(=O)O    n
CCOC(=O)c1ncn2c1CN(C)C(=O)c1cc(F)ccc1-2    n
Cc1[nH]c(C=C2C(=O)Nc3ccccc32)c(C)c1CCC(=O)O [TSU-68 (SU6668,Orantinib)]    n

Determine if `C=CC(=O)N1CCC(Oc2cc3c(Nc4ccc(Cl)c(Cl)c4F)ncnc3cc2OC)CC1` shows cell viability strictly lower than 100.
y

Determine if Cc1ccc(NC(=O)c2ccc(CN3CCN(C)CC3)cc2)cc1Nc1nccc(-c2cccnc2)n1 [Imatinib (STI571)] shows cell viability strictly lower than 100.
n
